The values you see were collected from patent US12258355B2.

Listed next: entries and their corresponding IC50.
TARGET_DESC: Q46 protein aggregates (Homo sapiens)
Construct: fused on or other part: GST at the N-terminus, cut off with thrombin before the test to start aggregation; The wells held aggregated Q46 without GST
Sequence (P42858 with tags, fused parts or gaps with the stated changes, form open): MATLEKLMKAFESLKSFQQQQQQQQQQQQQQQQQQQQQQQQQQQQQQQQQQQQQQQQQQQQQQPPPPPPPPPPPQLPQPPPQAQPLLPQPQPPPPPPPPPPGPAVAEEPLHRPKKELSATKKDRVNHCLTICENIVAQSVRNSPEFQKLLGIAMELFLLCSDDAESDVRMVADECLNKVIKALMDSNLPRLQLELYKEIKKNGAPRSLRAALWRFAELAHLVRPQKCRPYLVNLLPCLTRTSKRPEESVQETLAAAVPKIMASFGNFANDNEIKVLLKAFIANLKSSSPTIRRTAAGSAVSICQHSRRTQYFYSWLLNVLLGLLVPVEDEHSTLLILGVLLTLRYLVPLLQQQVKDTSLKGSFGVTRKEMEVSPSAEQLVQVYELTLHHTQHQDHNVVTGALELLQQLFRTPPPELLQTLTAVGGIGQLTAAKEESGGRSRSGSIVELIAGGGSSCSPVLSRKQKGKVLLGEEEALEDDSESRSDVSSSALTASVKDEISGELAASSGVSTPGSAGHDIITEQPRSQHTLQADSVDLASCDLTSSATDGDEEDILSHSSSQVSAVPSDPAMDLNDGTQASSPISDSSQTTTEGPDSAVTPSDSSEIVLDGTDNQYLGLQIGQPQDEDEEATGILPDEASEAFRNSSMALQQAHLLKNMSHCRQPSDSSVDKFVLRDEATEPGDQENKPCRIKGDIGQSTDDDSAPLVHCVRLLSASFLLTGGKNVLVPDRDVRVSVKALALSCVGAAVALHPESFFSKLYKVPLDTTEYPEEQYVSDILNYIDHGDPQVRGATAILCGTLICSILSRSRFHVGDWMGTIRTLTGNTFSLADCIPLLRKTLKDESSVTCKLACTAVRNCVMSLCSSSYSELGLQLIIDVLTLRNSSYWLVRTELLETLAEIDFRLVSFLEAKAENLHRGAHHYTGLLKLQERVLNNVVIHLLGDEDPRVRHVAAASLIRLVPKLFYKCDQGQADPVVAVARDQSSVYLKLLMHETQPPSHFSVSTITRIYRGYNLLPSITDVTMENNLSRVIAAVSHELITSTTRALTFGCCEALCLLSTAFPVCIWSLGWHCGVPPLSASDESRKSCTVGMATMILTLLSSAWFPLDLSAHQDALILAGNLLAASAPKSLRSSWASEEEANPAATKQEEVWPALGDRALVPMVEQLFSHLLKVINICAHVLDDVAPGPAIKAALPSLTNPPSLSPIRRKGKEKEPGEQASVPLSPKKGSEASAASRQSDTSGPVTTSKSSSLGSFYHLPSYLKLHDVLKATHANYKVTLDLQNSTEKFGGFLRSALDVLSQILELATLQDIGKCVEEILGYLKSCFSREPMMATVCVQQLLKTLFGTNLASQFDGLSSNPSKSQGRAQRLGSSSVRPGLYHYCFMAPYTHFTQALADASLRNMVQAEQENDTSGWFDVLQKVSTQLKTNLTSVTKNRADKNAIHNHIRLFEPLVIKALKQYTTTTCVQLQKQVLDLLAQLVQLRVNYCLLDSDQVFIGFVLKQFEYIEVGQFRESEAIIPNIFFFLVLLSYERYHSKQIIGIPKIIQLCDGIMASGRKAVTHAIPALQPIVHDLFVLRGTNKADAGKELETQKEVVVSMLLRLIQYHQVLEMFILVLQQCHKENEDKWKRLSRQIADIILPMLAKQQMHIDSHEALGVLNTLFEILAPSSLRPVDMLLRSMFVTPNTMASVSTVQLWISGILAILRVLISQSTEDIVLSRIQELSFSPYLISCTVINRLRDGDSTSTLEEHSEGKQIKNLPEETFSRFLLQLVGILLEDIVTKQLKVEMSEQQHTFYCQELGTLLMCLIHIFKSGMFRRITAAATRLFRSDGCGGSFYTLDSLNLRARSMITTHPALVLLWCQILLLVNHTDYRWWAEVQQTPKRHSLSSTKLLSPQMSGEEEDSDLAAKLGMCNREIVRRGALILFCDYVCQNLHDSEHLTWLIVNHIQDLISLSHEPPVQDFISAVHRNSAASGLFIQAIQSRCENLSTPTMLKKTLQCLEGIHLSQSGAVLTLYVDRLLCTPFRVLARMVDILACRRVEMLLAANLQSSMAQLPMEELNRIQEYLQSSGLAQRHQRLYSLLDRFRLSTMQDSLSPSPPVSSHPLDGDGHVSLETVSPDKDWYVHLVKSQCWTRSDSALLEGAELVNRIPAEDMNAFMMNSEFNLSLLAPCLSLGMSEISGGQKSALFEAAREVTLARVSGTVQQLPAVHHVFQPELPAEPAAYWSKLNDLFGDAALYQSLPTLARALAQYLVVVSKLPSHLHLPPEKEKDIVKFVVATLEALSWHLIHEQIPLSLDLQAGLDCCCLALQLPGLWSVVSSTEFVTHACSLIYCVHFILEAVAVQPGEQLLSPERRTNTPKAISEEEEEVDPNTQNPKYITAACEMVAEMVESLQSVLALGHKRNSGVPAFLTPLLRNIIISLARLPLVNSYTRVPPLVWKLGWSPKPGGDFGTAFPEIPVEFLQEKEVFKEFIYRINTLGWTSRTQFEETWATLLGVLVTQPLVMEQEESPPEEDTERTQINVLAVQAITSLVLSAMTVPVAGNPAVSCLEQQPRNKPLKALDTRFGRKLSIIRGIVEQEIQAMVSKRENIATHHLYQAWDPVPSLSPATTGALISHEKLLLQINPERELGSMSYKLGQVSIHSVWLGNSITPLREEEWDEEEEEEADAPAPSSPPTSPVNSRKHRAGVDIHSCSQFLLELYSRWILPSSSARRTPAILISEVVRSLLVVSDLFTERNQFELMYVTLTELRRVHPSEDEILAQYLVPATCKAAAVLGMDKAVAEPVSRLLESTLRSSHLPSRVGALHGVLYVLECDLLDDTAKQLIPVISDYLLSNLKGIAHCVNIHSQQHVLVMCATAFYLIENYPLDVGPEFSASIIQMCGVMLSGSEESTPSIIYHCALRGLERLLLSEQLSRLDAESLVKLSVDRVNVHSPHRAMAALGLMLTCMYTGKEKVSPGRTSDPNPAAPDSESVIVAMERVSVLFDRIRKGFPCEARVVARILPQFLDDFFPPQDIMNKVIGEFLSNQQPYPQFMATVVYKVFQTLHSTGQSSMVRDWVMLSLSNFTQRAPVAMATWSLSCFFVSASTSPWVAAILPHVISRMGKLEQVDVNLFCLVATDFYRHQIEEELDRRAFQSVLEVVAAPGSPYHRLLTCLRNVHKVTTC
METHOD_NOTES: Q46 radioligand binding assay (RBA)
TEST_CONTEXT: 10 nM ligand [3H3]MK-3328
Procedure: Q46 Radioligand Binding Assay For radioligand binding assays (RBA) GST-Q46 protein was generated based on a previous publication (Scherzinger et al. Cell, Vol. 90, 549-558, Aug. 8, 1997). […] After drying filter plates for 1 hour at 37° C., the back of the plates were sealed with foil and 30 μL/well scintillation fluid (Packard MicroScint 40) added, incubated for 15 minutes in the dark and counted in a TopCount reader. […]
READOUT: IC50

In [3]: df
Out[3]:
                                   compound       measured
0  COc1ccc(COc2ccc3oc(-c4ccc[n+]([O-])c4)nc3c2)nc1       < 100 nM
1   Cn1cc(-c2nc3cc(OCc4ccc(O)cn4)ccc3o2)cn1  100 to 500 nM
2  O=C(Nc1ccc2oc(-c3cccnc3)nc2c1)c1ccc2occc2c1       < 100 nM
3  COc1ccc(COc2ccc3oc(C4Cc5ccccc5O4)nc3c2)nc1 (stereo not shown)       < 100 nM
4    COc1ccc(COc2ccc3oc(-c4cccnc4)nc3c2)nc1       < 100 nM
5  BrC1=C(c2cc3cc(OCc4cccnc4)ccc3o2)N2CCN=C2S1       < 100 nM
6  COc1ccc(C(=O)Nc2ccc3oc(-c4cccc(C)c4)nc3c2)nc1       < 100 nM
7  C1=C(c2cc3cc(OCc4cccnc4)ccc3o2)N2CCN=C2S1       < 100 nM
8     Oc1ccc(COc2ccc3oc(-c4cccnc4)nc3c2)nc1       < 100 nM
9     COc1ccc(-c2ccc3oc(-c4cccnc4)nc3c2)nc1  100 to 500 nM
